biological target: T1, human PD-1 expressed on the cell surface (human, UniProt Q15116 25-288); assay: flow cytometry on CD3/CD28 stimulated human T cells (PD1+ CD3+); given as ED50
T1 construct: whole, on cells; PD-1 on CD3/CD28 stimulated human T cells (flow cytometry), on Promega Jurkat effector cells and on human M1 macrophages (functional assays); also called PD1+ positive CD3+ T cell population; PD-1+ T cells
T1 sequence (Q15116 25-288): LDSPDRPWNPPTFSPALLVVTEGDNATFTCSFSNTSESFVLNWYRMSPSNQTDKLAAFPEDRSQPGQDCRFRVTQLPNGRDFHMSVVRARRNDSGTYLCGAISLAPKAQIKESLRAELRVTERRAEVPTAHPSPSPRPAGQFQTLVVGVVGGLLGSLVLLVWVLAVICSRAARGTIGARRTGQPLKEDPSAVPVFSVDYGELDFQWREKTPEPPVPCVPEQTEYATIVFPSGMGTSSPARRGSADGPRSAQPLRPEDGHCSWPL
RECORDED_ENDPOINT: EC50 (nM)
Kindly answer with a numeric value in nM, unit omitted.

Past entries and their recorded results:
BINDER	REPORTED_MEASUREMENT
HCLD (antibody, human IgG4 S228P, kappa, V domains shown, also called humanized anti-PD1 variant HC heavy chain + LD light chain) VH: QIQLVQSGSELKKPGASVKVSCKASGYTFTHYAMNWVRQAPGQGLEWMGWINTNTGEPTYAQGFTGRFVFSLDTSVSTAYLQISSLKAEDTAVYYCAREREPGMDSWGQGTLVTVSS VL: DVVMTQSPLSLPVTLGQPASISCRSSQSLVHANTNTYLEWYQQRPGQSPRLLIYKVSNRFSGVPDRFSGSGSGTDFTLKISRVEAEDVGVYYCFQGTHVPNTFGQGTKLEIKR	0.278
HLLD (antibody, human IgG4 S228P, kappa, V domains shown, also called humanized anti-PD1 variant HL heavy chain + LD light chain) VH: QIQLVQSGSELKKPGASVKVSCKASGYTFTHYAMNWVRQAPGQGLEWMGWINTNTGEPTYAQGFTGRFVFSLDTSVSTAYLQISSLKAEDTAVYYCAREREPGMDEWGQGTLVTVSS VL: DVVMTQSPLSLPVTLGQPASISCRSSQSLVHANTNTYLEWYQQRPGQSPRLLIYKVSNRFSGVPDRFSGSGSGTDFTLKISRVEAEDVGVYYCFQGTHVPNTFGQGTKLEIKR	0.223

Query: Which EC50 is reported for this binder? HKLD (antibody, human IgG4 S228P, kappa, V domains shown, also called humanized anti-PD1 variant HK heavy chain + LD light chain; humanized anti PD-1 (HKLD variant)) VH: QIQLVQSGSELKKPGASVKVSCKASGYTFTHYAMNWVRQAPGQGLEWMGWINTNTGEPTYAQGFTGRFVFSLDTSVSTAYLQISSLKAEDTAVYYCAREREPGMDNWGQGTLVTVSS VL: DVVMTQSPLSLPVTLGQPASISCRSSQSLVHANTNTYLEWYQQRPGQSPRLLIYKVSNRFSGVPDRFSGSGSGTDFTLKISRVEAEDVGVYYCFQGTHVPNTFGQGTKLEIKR
Reply: 0.187

Query: Which EC50 is reported for this binder? HELD (antibody, human IgG4 S228P, kappa, V domains shown, also called humanized anti-PD1 variant HE heavy chain + LD light chain; HELD(V94)) VH: QIQLVQSGSELKKPGASVKVSCKASGYTFTHYAMNWVRQAPGQGLEWMGWINTNTGEPTYAQGFTGRFVFSLDTSVSTAYLQISSLKAEDTAVYYCAREREPGMDTWGQGTLVTVSS VL: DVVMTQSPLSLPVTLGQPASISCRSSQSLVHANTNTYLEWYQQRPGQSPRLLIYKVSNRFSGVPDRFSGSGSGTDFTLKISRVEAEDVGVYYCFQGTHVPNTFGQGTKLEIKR
Reply: 0.402

Taken from patent US20210355225A1.
